# target-system: Prostacyclin receptor (Rattus norvegicus)
# experiment-notes: Intrinsic activity at rat recombinant IP receptor expressed in CHO-K1 cells incubated for 1 hr by HTRF cAMP assay relative to 1 uM iloprost
# Assay type: functional, cell-based
recorded-metric: Intrinsic activity (%)
Write the answer as a number in %, unit excluded.

molecule: COc1ccc(-c2c(-c3ccccc3)cnn(CC3CCc4c(cccc4OCC(=O)O)C3)c2=O)cc1 (racemic)
test-value: 105

Report Intrinsic activity under test system Prostacyclin receptor (Rattus norvegicus) for Cc1cccc(-c2cc(=O)n(CC3CCc4c(cccc4OCC(=O)O)C3)nc2-c2ccccc2)c1 (racemic) .
72

Report Intrinsic activity under test system Prostacyclin receptor (Rattus norvegicus) for O=C(O)COc1cccc2c1CCC(Cn1ncc(-c3cccc(F)c3F)c(-c3ccc(F)cc3)c1=O)C2 (racemic) .
103

Report Intrinsic activity under test system Prostacyclin receptor (Rattus norvegicus) for COc1ccc(-c2nn(CC3CCc4c(cccc4OCC(=O)O)C3)c(=O)cc2-c2ccccc2)cc1 (racemic) .
93

Report Intrinsic activity under test system Prostacyclin receptor (Rattus norvegicus) for O=C(O)COc1cccc2c1CCC(Cn1ncc(-c3ccccc3)c(-c3ccc(F)cc3)c1=O)C2 (racemic) .
104

Report Intrinsic activity under test system Prostacyclin receptor (Rattus norvegicus) for O=C(O)COc1cccc2c1CCC(Cn1ncc(-c3ccccc3)c(-c3ccccc3)c1=O)C2 (racemic) .
88

Report Intrinsic activity under test system Prostacyclin receptor (Rattus norvegicus) for O=C(O)COc1cccc2c1CCC(Cn1ncc(-c3cccc(F)c3F)c(-c3ccccc3)c1=O)C2 (racemic) .
101

Report Intrinsic activity under test system Prostacyclin receptor (Rattus norvegicus) for COc1ccc(-c2nn(CC3CCc4c(cccc4OCC(=O)O)C3)c(=O)cc2-c2ccccc2)cc1F (racemic) .
75

Report Intrinsic activity under test system Prostacyclin receptor (Rattus norvegicus) for COc1cccc(-c2cnn(CC3CCc4c(cccc4OCC(=O)O)C3)c(=O)c2-c2ccccc2)c1F (racemic) .
98

Report Intrinsic activity under test system Prostacyclin receptor (Rattus norvegicus) for O=C(O)COc1cccc2c1CC[C@@H](Cn1ncc(-c3cccc(F)c3F)c(-c3ccc(F)cc3)c1=O)C2 (racemic) .
100

====

# target-system: Prostacyclin receptor (Rattus norvegicus)
# experiment-notes: Intrinsic activity at rat recombinant IP receptor expressed in CHO-K1 cells incubated for 1 hr by HTRF cAMP assay relative to 1 uM iloprost
# Assay type: functional, cell-based
Each entry below lists one item and its recorded Intrinsic activity value.
Write the answer as a number in %, unit excluded.

Recorded Intrinsic activity, per entry:
molecule: COc1cccc(-c2cc(=O)n(CC3CCc4c(cccc4OCC(=O)O)C3)nc2-c2ccccc2)c1F (racemic)
Intrinsic activity / %: 85

molecule: COc1cccc(-c2cc(=O)n(CC3CCc4c(cccc4OCC(=O)O)C3)nc2-c2ccc(F)cc2)c1 (racemic)
Intrinsic activity / %: 102

Input O=C(O)COc1cccc2c1CCC(Cn1ncc(-c3cccc(F)c3)c(-c3ccccc3)c1=O)C2 (racemic) , output reported Intrinsic activity.
103

====

Each entry below lists one item and its recorded Intrinsic activity value.
# target-system: UniProt P43253
# Sequence (P43253 whole entry): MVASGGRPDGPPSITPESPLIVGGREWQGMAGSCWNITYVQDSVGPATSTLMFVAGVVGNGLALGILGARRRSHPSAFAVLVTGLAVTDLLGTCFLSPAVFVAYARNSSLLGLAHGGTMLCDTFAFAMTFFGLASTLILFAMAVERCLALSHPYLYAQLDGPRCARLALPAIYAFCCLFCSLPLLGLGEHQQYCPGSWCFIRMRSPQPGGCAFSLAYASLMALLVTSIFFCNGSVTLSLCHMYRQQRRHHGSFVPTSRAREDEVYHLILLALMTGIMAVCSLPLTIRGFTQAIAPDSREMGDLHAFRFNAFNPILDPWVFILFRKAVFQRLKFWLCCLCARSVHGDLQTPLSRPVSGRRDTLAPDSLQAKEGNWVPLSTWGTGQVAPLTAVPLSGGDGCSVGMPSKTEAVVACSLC
# experiment-notes: Intrinsic activity at rat recombinant IP receptor expressed in CHO-K1 cells incubated for 1 hr by HTRF cAMP assay relative to 1 uM iloprost
# Format: functional, cell-based
Write the answer as a number in %, unit excluded.

compound: O=C(O)COc1cccc2c1CCC(Cn1ncc(-c3ccccc3)c(-c3ccccc3F)c1=O)C2 (racemic)
Intrinsic activity [%]: 116

compound: O=C(O)COc1cccc2c1CCC(Cn1nc(-c3cccc(F)c3)c(-c3ccccc3)cc1=O)C2 (racemic)
Intrinsic activity [%]: 99

compound: O=C(O)COc1cccc2c1CCC(Cn1ncc(-c3cccc(Cl)c3)c(-c3ccccc3)c1=O)C2 (racemic)
Intrinsic activity [%]: 98

compound: COc1cccc(-c2cnn(CC3CCc4c(cccc4OCC(=O)O)C3)c(=O)c2-c2ccccc2)c1 (racemic)
Intrinsic activity [%]: 81

Note: attention shifts to another entry.
Input O=C(O)COc1cccc2c1CCC(Cn1ncc(-c3ccccc3)c(-c3cccc(F)c3)c1=O)C2 (racemic) , output reported Intrinsic activity.
121
